Would you kindly list Plant response rating, Sugarbeets for each of these molecules?
# System: sugar beet
# assay_explanation: Test B pre/postemergence sugar beet
# Assay type: in vivo, Beta vulgaris
# condition_summary: Preemergence, Rate 62 g/ha; scale of 0 to 10 where 0 is no effect and 10 is complete control
One number for each entry.

// known answers, use as guide
CC(C)N(C(=O)n1oc(=O)n(C(C)CCl)c1=O)c1ccc(Cl)cc1 (stereo not shown) [Compound 456] ... 0
CC(C)N(C(=O)n1oc(=O)n(C(C)C#N)c1=O)c1ccc(Cl)cc1 (stereo not shown) [Compound 451] ... 0
CCOCn1c(=O)on(C(=O)N(c2ccc(F)cc2F)C(C)C)c1=O [Compound 504] ... 4

From here, focus on the item given below.
What value of Plant response rating, Sugarbeets on sugar beet does COC(C)n1c(=O)on(C(=O)N(c2ccc(F)cc2)C(C)C)c1=O (stereo not shown) [Compound 439] have?
0

====

# Tested on: corn
# assay_explanation: Test B pre/postemergence corn
# Assay type: in vivo, Zea mays
# condition_summary: Rate 500 g/ha, Postemergence; scale 0 to 10, 0 no effect, 10 complete control
# Procedure: […] At the same time, these crop and weed species were also treated with postemergence applications of test chemicals formulated in the same manner. […] Treated plants and controls were maintained in a greenhouse for twelve to sixteen days, after which all species were compared to controls and visually evaluated. […]
Would you kindly list Corn plant response rating for each of these compounds?
Give bare numbers.

CC(C)N(C(=O)n1oc(=O)n(CCC2CCCCC2)c1=O)c1ccc(F)cc1 ... 0
Cc1ccccc1-n1c(=O)on(C(=O)N(c2ccncc2)C(C)C)c1=O ... 0
COCCOCn1c(=O)on(C(=O)N(c2ccc(F)cc2)C(C)C)c1=O ... 0
Cc1ccccc1-n1c(=O)on(C(=O)N(c2cc(F)ccc2F)C(C)C)c1=O ... 0
COc1ccc(N(C(=O)n2oc(=O)n(-c3ccccc3C)c2=O)C(C)C)cc1 ... 0

I would be grateful if you could share the reported Corn plant response rating for CCn1c(=O)on(C(=O)N(c2ccc(F)cc2)C(C)C)c1=O .
6

====

# Test system: crabgrass
# assay_explanation: Test B pre/postemergence crabgrass
# Format: in vivo, Digitaria sanguinalis
# condition_summary: Rate 500 g/ha, Postemergence; scale 0 to 10, 0 no effect, 10 complete control
Would you kindly list Crabgrass plant response rating for each of these compounds?

// known answers, use as guide
CC(C)N(C(=O)n1oc(=O)n(C2CCCC2)c1=O)c1ccc(Cl)cc1 [Compound 282] ... 0
CC(C)N(C(=O)n1oc(=O)n(C2CC2)c1=O)c1ccccc1 [Compound 243] ... 9
CCn1c(=O)on(C(=O)N(c2ccc(F)cc2)C(C)C)c1=O [Compound 107] ... 9
Cc1nn(C)c(Cl)c1-n1c(=O)on(C(=O)N(c2ccc(F)cc2)C(C)C)c1=O [Compound 95] ... 8
Cc1cc(C)c(-n2c(=O)on(C(=O)N(c3ccc(F)cc3)C(C)C)c2=O)c(Br)c1 [Compound 224] ... 0
CCN(C(=O)n1oc(=O)n(Cc2cccs2)c1=O)C1CCCCC1 [Compound 82] ... 0

From here, focus on the item given below.
What value of Crabgrass plant response rating on crabgrass does Cc1ccccc1-n1c(=O)on(C(=O)N(c2cc(F)ccc2F)C(C)C)c1=O [Compound 68] have?
0

====

# Test system: velvetleaf
# assay_explanation: Test B pre/postemergence velvetleaf
# Assay type: in vivo, Abutilon theophrasti
# condition_summary: Preemergence, Rate 62 g/ha; scale 0 to 10 (0 no effect, 10 complete control)
measured_property: Plant response rating, Velvetleaf
One number for each entry.

// known answers, use as guide
CC(C)Cn1c(=O)on(C(=O)N(c2ccc(F)cc2F)C(C)C)c1=O ... 1
CC(C)N(C(=O)n1oc(=O)n(C(C)CCl)c1=O)c1ccccc1 (centres unmarked) ... 2
CC(C)N(C(=O)n1oc(=O)n(C2CCC2)c1=O)c1ccc(F)cc1 ... 2
CC(C)N(C(=O)n1oc(=O)n(CCCC(F)(F)F)c1=O)c1ccc(F)cc1 ... 0

I would be grateful if you could share the reported Plant response rating, Velvetleaf for CC(C)N(C(=O)n1oc(=O)n(C2(C)CC2)c1=O)c1ccccc1 .
3

====

Would you kindly list Cocklebur plant response rating for each of these compounds?
# Test system: cocklebur
# assay_explanation: Test B pre/postemergence cocklebur
# Format: in vivo, Xanthium strumarium
# condition_summary: Postemergence, Rate 125 g/ha; scale of 0 to 10 where 0 is no effect and 10 is complete control
Answers are plain numbers.

CC(C)N(C(=O)n1oc(=O)n(C(C)c2ccccc2)c1=O)c1ccc(F)cc1 (stereo not drawn) ... 0
Cc1ccccc1Cn1c(=O)on(C(=O)N(c2ccc(Cl)cc2)C(C)C)c1=O ... 2

From here, focus on the item given below.
I would be grateful if you could share the reported Cocklebur plant response rating for CC(C)N(C(=O)n1oc(=O)n(CCCC#N)c1=O)c1ccccc1 .
0

====

# Tested on: surinam grass
# assay_explanation: Test B pre/postemergence surinam grass
# Assay type: in vivo, Brachiaria decumbens
# condition_summary: Postemergence, Rate 500 g/ha; scale 0 to 10, 0 is no effect, 10 is complete control
Plant response rating, B. signalgrass below 2 gives Condition not met; Plant response rating, B. signalgrass at or above it gives Condition met.

Check out these entries, answers already filled in.
CC(C)N(C(=O)n1oc(=O)n(CCCC(F)(F)F)c1=O)c1ccc(Cl)cc1 ... Condition met
CCOCn1c(=O)on(C(=O)N(c2ccc(F)cc2F)C(C)C)c1=O ... Condition met
C=C(Cn1c(=O)on(C(=O)N(c2ccccc2)C(C)C)c1=O)c1cccnc1 ... Condition not met

Would you kindly look at the next entry?
// inclusive: Plant response rating, B. signalgrass at least 2? input: Cc1noc(C)c1Cn1c(=O)on(C(=O)N(c2ccc(Cl)cc2)C(C)C)c1=O
Condition met

====

# Tested on: pigweed
# assay_explanation: Test B pre/postemergence pigweed
# Type: in vivo, Amaranthus retroflexus
# condition_summary: Preemergence, Rate 62 g/ha; scale 0 to 10 (0 no effect, 10 complete control)
Would you kindly list Plant response rating, Redroot pigweed for each of these compounds?
One number for each entry.

I would be grateful if you could provide Plant response rating, Redroot pigweed for each of the following entries.
1. CSCCn1c(=O)on(C(=O)N(c2ccccc2)C(C)C)c1=O
2. CC(C)N(C(=O)n1oc(=O)n(CCCC(F)(F)F)c1=O)c1ccc(F)cc1
3. CC(C)N(C(=O)n1oc(=O)n(CCl)c1=O)c1ccc(Cl)cc1
4. CC(C)N(C(=O)n1oc(=O)n(C)c1=O)c1ccccc1
5. CC(C)N(C(=O)n1oc(=O)n(C(C)CCl)c1=O)c1ccccc1 (stereo not shown)

1. 0
2. 2
3. 0
4. 7
5. 3

I would be grateful if you could provide Plant response rating, Redroot pigweed for each of the following entries.
1. CC(C)Cn1c(=O)on(C(=O)N(c2ccc(F)cc2F)C(C)C)c1=O
2. CC(C)N(C(=O)n1oc(=O)n(CCC#N)c1=O)c1ccc(F)cc1F

1. 1
2. 0

====

# Tested on: wheat
# assay_explanation: Test B pre/postemergence wheat
# Assay type: in vivo, Triticum aestivum
# condition_summary: Preemergence, Rate 500 g/ha; scale of 0 to 10 where 0 is no effect and 10 is complete control
# Description: […] At the same time, these crop and weed species were also treated with postemergence applications of test chemicals formulated in the same manner. […] Treated plants and controls were maintained in a greenhouse for twelve to sixteen days, after which all species were compared to controls and visually evaluated. […]
Would you kindly list Wheat plant response rating for each of these compounds?
Numbers only.

CC(=O)OCCCCn1c(=O)on(C(=O)N(c2ccccc2)C(C)C)c1=O ... 0
CC(C)N(C(=O)n1oc(=O)n(C2(C)CC2)c1=O)c1ccccc1 ... 8

I would be grateful if you could share the reported Wheat plant response rating for CC(C)N(C(=O)n1oc(=O)n(C2CCC2)c1=O)c1ccc(F)cc1 .
3

====

# System: velvetleaf
# assay_explanation: Test B pre/postemergence velvetleaf
# Format: in vivo, Abutilon theophrasti
# condition_summary: Rate 1000 g/ha, Preemergence; scale 0 to 10 (0 no effect, 10 complete control)
measured_property: Plant response rating, Velvetleaf
One number for each entry.

// known answers, use as guide
COC(=O)N(C)CCn1c(=O)on(C(=O)N(c2ccccc2)C(C)C)c1=O ... 4
COC(=O)C(CCO)n1c(=O)on(C(=O)N(c2ccccc2)C(C)C)c1=O (stereo not shown) ... 5
CC(C)N(C(=O)n1oc(=O)n(-c2ccccc2Cl)c1=O)c1ccc(F)cc1 ... 4

From here, focus on the item given below.
I would be grateful if you could share the reported Plant response rating, Velvetleaf for CCN(CC)C(=O)n1oc(=O)n(-c2ccc(OC(F)(F)F)cc2)c1=O .
0

====

# System: bedstraw
# assay_explanation: Test B pre/postemergence bedstraw
# Format: in vivo, Galium aparine
# condition_summary: Preemergence, Rate 500 g/ha; scale 0 to 10 (0 no effect, 10 complete control)
measured_property: Bedstraw plant response rating
Give bare numbers.

// known answers, use as guide
CC(C)N(C(=O)n1oc(=O)n(-c2nc(Cl)sc2Cl)c1=O)c1ccc(F)cc1 [Compound 160] ... 0
CCOC(=O)Cn1c(=O)on(C(=O)N(c2ccc(F)cc2)C(C)C)c1=O [Compound 128] ... 0
Cc1ccccc1-n1c(=O)on(C(=O)N(c2ccc(-c3ccccc3)cc2)C(C)C)c1=O [Compound 187] ... 0

I would be grateful if you could provide Bedstraw plant response rating for each of the following entries.
1. CC(C)N(C(=O)n1oc(=O)n([C@H](C)c2ccccc2)c1=O)c1ccc(Cl)cc1 [Compound 178]
2. CCn1c(=O)on(C(=O)N(c2ccc(F)cc2F)C(C)C)c1=O [Compound 116]

1: 0; 2: 9
